# experiment-description: gradient 5% acetonitrile 3 min, to 50% in 2 min, to 85% in 15 min, held 3 min, 100 µL/min
# test-parameters: column: Zorbax Extend-C18 2.1 x 50 mm; eluents: water / acetonitrile, 0.1% formic acid
Provide the reported RP-LC retention time of each item.
The reply must contain the numeric value and, after it, the unit.

[
  {
    "compound": "COc1ccc(NC(=O)c2nnc(COCC(=O)NCCc3c[nH]c4ccc(Cl)cc34)s2)cc1",
    "recorded-result": "894 s"
  },
  {
    "compound": "Cn1c(=O)c2cc(C(=O)Nc3ccc(F)cc3)cnc2n(-c2ccccc2)c1=O",
    "recorded-result": "868 s"
  },
  {
    "compound": "CC(CCNC(=O)CN1C(=O)CCn2nc(-c3cn(C)c4ccccc34)cc21)N1CCCC1 (centres undefined)",
    "recorded-result": "616 s"
  }
]

Batch: RP-LC retention time for all items listed.
1. CCC(Oc1ccc(=O)n(-c2ccc(F)cc2)n1)C(=O)NCc1ccco1 (centres undefined)
2. CN(Cc1ccccc1)c1ccc(-c2noc(CN3CCSCC3)n2)cn1

["733 s", "930 s"]

Return reported RP-LC retention time values for all items listed beneath this line.
1. O=C(Cc1ccc(F)cc1)Nc1nnc(C2CC(=O)N(c3ccc(Cl)cc3)C2)o1 (centres undefined)
2. COc1cccc(CNC(=O)C2CCN(S(=O)(=O)c3ccc4c(c3)sc(=O)n4C)CC2)c1
3. CC(C)(Oc1ccc(Cl)cc1)C(=O)Nc1c(-c2ccc(F)cc2)nc2ccccn12
4. Cc1ccc2ncn(C3CCN(S(=O)(=O)c4cccc(Cl)c4)CC3)c(=O)c2c1

789 s
798 s
821 s
963 s

The reported measurements were obtained from the METLIN SMRT retention time set (Domingo-Almenara et al. 2019).
